# PROCEDURE SUMMARY: pKa value was determined
# Type: physicochemical
Documented pKa across a set of molecules
Give the figure by itself; no unit, no explanation.

Some entries whose results are on file:
# SMILES INPUT, ENDPOINT LABEL, MEASURED RESULT
rows = [
    ("O=C(O)CCCCc1cc(=O)oc2c(CN3CCCCC3)c(O)ccc12", "pKa", 6.6),
    ("O=C(O)CCCCc1cc(=O)oc2cc(O)ccc12", "pKa", 7.8),
    ("O=C(O)CCCCc1cc(=O)oc2c(CN3CCCC3)c(O)ccc12", "pKa", 6.7),
]

Kindly consider the entry below.
Prompt: Look at this molecule and give its reported pKa. CCN(CC)Cc1c(O)ccc2c(CCCCC(=O)O)cc(=O)oc12
Response: 6.6
